pKd by entry:
target: T1, recombinant human IL-2 receptor beta containing a His-tag and Avi-Tag (R&D Systems #AVI10459) (human, UniProt P14784 27-239)
T1 construct: bought protein, held on the Octet SAX2 sensor; also called CD122; IL-2Rβ
T1 sequence (looked up): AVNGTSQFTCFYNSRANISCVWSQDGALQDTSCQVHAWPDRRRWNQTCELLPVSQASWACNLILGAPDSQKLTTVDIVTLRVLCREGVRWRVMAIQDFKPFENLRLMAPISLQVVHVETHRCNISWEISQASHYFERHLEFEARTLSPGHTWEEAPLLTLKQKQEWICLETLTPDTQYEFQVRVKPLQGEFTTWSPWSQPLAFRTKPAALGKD
experimental.protocol: BLI (Octet), receptor on SAX2 sensor, MMP2-treated IL-2 as analyte
Bridges are numbered along the chain shown (N, C = ends). [ ]: non-standard residue; d: D form. Ygp = O-(8x polyethylene glycol-amino)-tyrosine; Yn3 = O-(9x polyethylene glycol-azido)-tyrosine; hSer = N[C@@H](CCO)C(=O)O; Nle = CCCC[C@H](N)C(=O)O
Just so you know, pKd here is -log10 of the concentration in molar units; reply with that number alone.

// worked examples, pKd included
>  <binder>
CMP-166, MMP2 cleaved (ligand, not fully specified; as CMP-166 but cleavable peptide cut by MMP2 (macrocycle opened); cut site not given) APTSSSTKKTQLQLEHLLLDLQKILNGINNYKNPKLTRXLXYKFYXPKKATELKHLQCLEEELKPLEEVLXLAQSKNFHLRPRDLISNINVIVLELKGSETTFXCEYADETATIVEFLNRWITFSQSIISTLT

>  <pKd>
6.10

$$$$
>  <binder>
CMP-168, MMP2 cleaved (ligand, disulfide 58-105 (inferred); not fully specified (residues 9, 23); also: cleaved by MMP2, bridge opened, remnants on Lys9 and Glu23 not defined) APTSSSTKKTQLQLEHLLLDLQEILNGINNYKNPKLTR[Nle]L[hSer][Yn3]KF[Ygp][Nle]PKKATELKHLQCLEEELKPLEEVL[hSer]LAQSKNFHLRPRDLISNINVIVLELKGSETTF[hSer]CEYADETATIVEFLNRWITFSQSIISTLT

>  <pKd>
2.86

$$$$
>  <binder>
CMP-167, MMP2 cleaved (ligand, not fully specified; as CMP-167 but cleavable peptide cut by MMP2 (macrocycle opened); cut site not given) APTSSSTKKTQLQLEHLLLDLQKILNGINNYKNPKLTRXLXYKFYXPKKATELKHLQCLEEELKPLEEVLXLAQSKNFHLRPRDLISNINVIVLELKGSETTFXCEYADETATIVEFLNRWITFSQSIISTLT

>  <pKd>
6.18

$$$$

// next entry
pKd lookup needed for CMP-165, MMP2 cleaved (ligand, disulfide 58-105 (inferred); not fully specified (residue 23, N-terminus); also: MMP2 cleaved, ring opened, cut site not given here, peptide remnants on N-terminus (via glutaryl) and on Lys23 side chain) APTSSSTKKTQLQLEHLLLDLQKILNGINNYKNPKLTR[Nle]L[hSer][Yn3]KF[Ygp][Nle]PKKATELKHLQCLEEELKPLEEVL[hSer]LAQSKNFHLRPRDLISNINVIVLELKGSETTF[hSer]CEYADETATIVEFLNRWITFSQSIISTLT , thanks.
5.95

These entries and their values trace back to patent US20240417436A1.
